# System: DND-41;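 further: ALL cell lines in 384-well plates, five doses spanning 10,000-fold, each plate scaled between vehicle and 100 µmol/L benzalkonium chloride controls, sDSS an adapted area-under-curve metric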
# test_summary: selective drug sensitivity score (sDSS, relative to normal bone marrow) (sDSS (score)); higher = more potent and effective on the cell line relative to normal bone marrow cells
# condition_notes: 72 h
metric: selective drug sensitivity score
Please give only the number in your answer, with no unit.

* COc1cc(N2CCN(C)CC2)ccc1Nc1nccc(-c2cn(C)c3cnccc23)n1 [AZ191] (top concentration 10000 nM) | 0.08
* COCCNCc1ccc(-c2cc3nccc(Oc4ccc(NC(=O)C5(C(=O)Nc6ccc(F)cc6)CC5)cc4F)c3s2)nc1 [Sitravatinib] (top concentration 2500 nM) | 0.98
* COc1cc2c(NC3CCN(C(C)C)CC3)nc(C3CCCCC3)nc2cc1OCCCN1CCCC1 [UNC0638] (top concentration 10000 nM) | 3.36

I am curious: what selective drug sensitivity score value has been reported for COc1cc(Nc2ncc(F)c(Nc3ccc4c(n3)NC(=O)C(C)(C)O4)n2)cc(OC)c1OC [Tamatinib] (top concentration 10000 nM) ?
-1.82

So what's the measured selective drug sensitivity score for this one? CCN(c1cc(-c2ccc(CN3CCOCC3)cc2)cc(C(=O)NCc2c(C)cc(C)[nH]c2=O)c1C)C1CCOCC1 [Tazemetostat] (top concentration 10000 nM)
0.02

Item CNC(=O)[C@@H](NC(=O)[C@H](CC(C)C)[C@H](O)C(=O)NO)C(C)(C)C [Marimastat] (top concentration 10000 nM) has what recorded selective drug sensitivity score?
0.12

# selective drug sensitivity score lookup, item CC[C@H](CO)Nc1nc(NCc2ccccc2)c2ncn(C(C)C)c2n1 [Seliciclib] (top concentration 10000 nM)
9.26

Need selective drug sensitivity score, item CC(C)[C@H]1C(=O)N[C@@H](CCCNC(=N)N)C(=O)NCC(=O)N[C@@H](CC(=O)O)C(=O)N[C@H](Cc2ccccc2)C(=O)N1C [Cilengitide] (top concentration 10000 nM)
0

Given C[C@@H](Nc1cc(F)cc(F)c1)c1cc(C(=O)N(C)C)cc2c(=O)cc(N3CCOCC3)oc12 [AZD-8186] (top concentration 1000 nM) , state its recorded selective drug sensitivity score.
-0.26

Looking for the measured selective drug sensitivity score of CN1CC[C@@H](NC(=O)Nc2ccc(C#N)cc2)C[C@@H]1c1nc2ccccc2[nH]1 [Glasdegib] (top concentration 1000 nM) , can you help?
2.9

May I ask what selective drug sensitivity score has been recorded for O=C(Nc1c[nH]nc1-c1nc2ccc(CN3CCOCC3)cc2[nH]1)NC1CC1 [AT9283] (top concentration 1000 nM) ?
-0.68

I have this molecule here, CCc1c(C(=O)C(N)=O)c2c(OCC(=O)O)cccc2n1Cc1ccccc1 [Varespladib] (top concentration 10000 nM) , and I need its recorded selective drug sensitivity score.
-0.84

Param item = CN(Cc1cnc2nc(N)nc(N)c2n1)c1ccc(C(=O)N[C@@H](CCC(=O)O)C(=O)O)cc1 [Methotrexate] (top concentration 5000 nM) ; retrieve measured selective drug sensitivity score.
15

Given the molecule Cc1nc(=O)c2cc(CN(C)c3ccc(C(=O)N[C@@H](CCC(=O)O)C(=O)O)s3)ccc2[nH]1 [Raltitrexed] (top concentration 1000 nM) , what is its reported selective drug sensitivity score?
16.5

# selective drug sensitivity score lookup, item Clc1ccc(C(c2ccccc2Cl)C(Cl)Cl)cc1 (stereo not drawn) [Mitotane] (top concentration 10000 nM)
-0.08

Entry CC(C)Nc1cc(-c2c[nH]c(C(=O)N[C@H](CO)c3cccc(Cl)c3)c2)c(Cl)cn1 [Ulixertinib] (top concentration 10000 nM) : reported selective drug sensitivity score = ?
4.72

Could you share which selective drug sensitivity score value was measured for Clc1ccccc1C(c1ccccc1)(c1ccccc1)n1cccn1 [TRAM-34] (top concentration 1000 nM) ?
-0.08

Which selective drug sensitivity score value is on record for Nc1ccccc1NC(=O)c1ccc(CNC(=O)OCc2cccnc2)cc1 [Entinostat] (top concentration 10000 nM) ?
1.28
